# MEASURED ON: orexin-1 (Homo sapiens (Human))
# Sequence (O43613 whole entry): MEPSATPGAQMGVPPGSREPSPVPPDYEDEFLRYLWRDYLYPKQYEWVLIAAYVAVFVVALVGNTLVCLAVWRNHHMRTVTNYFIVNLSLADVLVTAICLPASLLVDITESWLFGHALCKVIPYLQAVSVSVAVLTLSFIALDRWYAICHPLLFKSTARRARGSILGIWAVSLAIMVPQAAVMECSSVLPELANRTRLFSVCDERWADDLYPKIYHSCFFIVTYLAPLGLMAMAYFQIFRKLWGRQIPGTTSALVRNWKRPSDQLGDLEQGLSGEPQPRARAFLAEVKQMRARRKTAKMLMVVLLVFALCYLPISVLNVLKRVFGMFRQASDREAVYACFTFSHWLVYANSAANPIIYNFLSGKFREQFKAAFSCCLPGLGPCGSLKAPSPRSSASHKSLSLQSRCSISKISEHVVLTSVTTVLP
# ASSAY TEXT: Intracellular calcium measurement (FLIPR), CHO cells expressing human orexin-1 receptor, 3 nM orexin-A
# Assay type: cell-based
# ASSAY CONDITIONS: CHO cells expressing human orexin-1 receptor, FLIPR, 3 nM orexin-A; geometric mean if determined several times; read-out: IC50 OX1
pIC50: −log10 of the molar value.
MEASURE: pIC50

(1) COc1c(F)cccc1-c1noc([C@@H]2CCCN2C(=O)c2ccccc2-n2nccn2)n1
(2) Cc1cc(C(=O)N2CCC[C@H]2c2nc(-c3cccc(F)c3C)no2)c(-n2nccn2)cc1C
Would you mind telling me which has the lower recorded pIC50 between 1 and 2 ? Returns: label corresponding to the selected item.
1
(1: 6.58, 2: 7.77)

Taken from patent US9493446B2.
